Value source: ChEMBL document CHEMBL2086280

tested on: MCF7; assay: Cytotoxicity against human MCF7 cells after 6 days by SRB assay; assay type: functional, cell-based; details: MCF7, 144 h
Recorded IC50 by entry
quantity: IC50 (µg/mL)

CC(C)[C@H](O)[C@H](O)C[C@@H](C)[C@H]1[C@@H](O)C[C@H]2[C@@H]3CC(=O)[C@H]4C[C@@H](O)CC[C@]4(C)[C@H]3CC[C@]12C	15
CC(=O)O[C@H]1CC[C@@]2(C)C(=CC[C@H]3[C@@H]4C[C@H](OC(C)=O)[C@H]([C@H](C)C(=O)CC[C@@H](C)CO)[C@@]4(C)CC[C@@H]32)C1	0.8
CC(C)[C@@H]1OC(C)(C)O[C@@H]1C[C@@H](C)[C@H]1[C@@H](O)C[C@H]2[C@@H]3C[C@@H](O)[C@H]4C[C@@H](O)CC[C@]4(C)[C@H]3CC[C@]12C	5
CC(C)[C@H](O)[C@H](O)C[C@@H](C)[C@H]1[C@@H](O)C[C@H]2[C@@H]3C[C@@H](O)[C@H]4C[C@@H](O)CC[C@]4(C)[C@H]3CC[C@]12C	13

###

tested on: K562; experiment: Cytotoxicity against human K562 cells after 6 days by MTS assay; conditions: K562, 144 h
Collected IC50 values appear next to each entry.
quantity: IC50

CC(C)[C@H](O)[C@H](O)C[C@@H](C)[C@H]1[C@@H](O[C@@H]2O[C@H](CO)[C@@H](O)[C@H](O)[C@H]2O)C[C@H]2[C@@H]3CC(=O)[C@H]4C[C@@H](O[C@@H]5O[C@H](CO[C@@H]6O[C@H](CO)[C@@H](O)[C@H](O)[C@H]6O)[C@@H](O)[C@H](O)[C@H]5O)CC[C@]4(C)[C@H]3CC[C@]12C	> 50 µg/mL
CC(C)[C@H](O)[C@H](O)C[C@@H](C)[C@H]1[C@@H](O[C@@H]2O[C@H](CO)[C@@H](O)[C@H](O)[C@H]2O)C[C@H]2[C@@H]3C[C@@H](O)[C@H]4C[C@@H](O[C@@H]5O[C@H](CO[C@@H]6O[C@H](CO)[C@@H](O)[C@H](O)[C@H]6O)[C@@H](O)[C@H](O)[C@H]5O)CC[C@]4(C)[C@H]3CC[C@]12C [CHAMAELIROSIDE E]	> 50 µg/mL
C[C@@H]1CC[C@@]2(OC1)O[C@H]1C[C@H]3[C@@H]4CC=C5C[C@@H](O)CC[C@]5(C)[C@H]4CC[C@]3(C)[C@H]1[C@@H]2C	> 50 µg/mL

###

system: NFF; experiment: Cytotoxicity against human NFF cells after 6 days by SRB assay; assay type: cell-based; conditions: 144 h
// values below are reported IC50
quantity: IC50 (µg/mL)

CC(C)[C@@H]1OC(C)(C)O[C@@H]1C[C@@H](C)[C@H]1[C@@H](O)C[C@H]2[C@@H]3C[C@@H](O)[C@H]4C[C@@H](O)CC[C@]4(C)[C@H]3CC[C@]12C	10
CC(C)[C@H](O)[C@H](O)C[C@@H](C)[C@H]1[C@@H](O)C[C@H]2[C@@H]3C[C@@H](O)[C@H]4C[C@@H](O)CC[C@]4(C)[C@H]3CC[C@]12C	22
CC(=O)OC[C@H](C)CC[C@@H](OC(C)=O)[C@@H](C)[C@H]1[C@@H](OC(C)=O)C[C@H]2[C@@H]3CC=C4C[C@@H](OC(C)=O)CC[C@]4(C)[C@H]3CC[C@]12C	13

###

// IC50 lookup, one value per entry
system: HeLa; assay: Cytotoxicity against human HeLa cells after 6 days by SRB assay; format: functional, cell-based; settings: 144 h
quantity: IC50 (µg/mL)

CC(=O)OC[C@H](C)CC[C@H](OC(C)=O)[C@@H](C)[C@H]1[C@@H](OC(C)=O)C[C@H]2[C@@H]3CC=C4C[C@@H](OC(C)=O)CC[C@]4(C)[C@H]3CC[C@]12C	16
CC(=O)OC[C@H](C)CC[C@@H](OC(C)=O)[C@@H](C)[C@H]1[C@@H](OC(C)=O)C[C@H]2[C@@H]3CC=C4C[C@@H](OC(C)=O)CC[C@]4(C)[C@H]3CC[C@]12C	13

###

system: HeLa; experiment: Cytotoxicity against human HeLa cells after 6 days by SRB assay; type: functional, cell-based; settings: 144 h
# IC50 per entry
quantity: IC50

CC(C)[C@H](O)[C@H](O)C[C@@H](C)[C@H]1[C@@H](O)C[C@H]2[C@@H]3CC(=O)[C@H]4C[C@@H](O)CC[C@]4(C)[C@H]3CC[C@]12C	15 µg/mL
CC(C)[C@H](O[C@@H]1O[C@H](C)[C@H](O)[C@H](O)[C@H]1O)[C@H](O)C[C@@H](C)[C@H]1[C@@H](O)C[C@H]2[C@@H]3CC(=O)[C@H]4C[C@@H](O[C@@H]5O[C@H](CO[C@@H]6O[C@H](CO)[C@@H](O)[C@H](O)[C@H]6O)[C@@H](O)[C@H](O)[C@H]5O)CC[C@]4(C)[C@H]3CC[C@]12C	> 50 µg/mL
C[C@@H]1CC[C@@]2(OC1)O[C@H]1C[C@H]3[C@@H]4CC=C5C[C@@H](O)CC[C@]5(C)[C@H]4CC[C@]3(C)[C@H]1[C@@H]2C [DISOGENIN]	> 50 µg/mL
CC(C)[C@H](O[C@@H]1O[C@H](C)[C@H](O)[C@H](O)[C@H]1O)[C@H](O)C[C@@H](C)[C@H]1[C@@H](O)C[C@H]2[C@@H]3C[C@@H](O)[C@H]4C[C@@H](O[C@@H]5O[C@H](CO[C@@H]6O[C@H](CO)[C@@H](O)[C@H](O)[C@H]6O)[C@@H](O)[C@H](O)[C@H]5O)CC[C@]4(C)[C@H]3CC[C@]12C [CHAMAELIROSIDE B]	> 50 µg/mL
CC(C)[C@@H]1OC(C)(C)O[C@@H]1C[C@@H](C)[C@H]1[C@@H](O)C[C@H]2[C@@H]3C[C@@H](O)[C@H]4C[C@@H](O)CC[C@]4(C)[C@H]3CC[C@]12C	4.3 µg/mL
CC(C)[C@H](O)[C@H](O)C[C@@H](C)[C@H]1[C@@H](O)C[C@H]2[C@@H]3C[C@@H](O)[C@H]4C[C@@H](O)CC[C@]4(C)[C@H]3CC[C@]12C	12 µg/mL
CC(C)[C@H](O)[C@H](O)C[C@@H](C)[C@H]1[C@@H](O[C@@H]2O[C@H](CO)[C@@H](O)[C@H](O)[C@H]2O)C[C@H]2[C@@H]3CC(=O)[C@H]4C[C@@H](O[C@@H]5O[C@H](CO[C@@H]6O[C@H](CO)[C@@H](O)[C@H](O)[C@H]6O)[C@@H](O)[C@H](O)[C@H]5O)CC[C@]4(C)[C@H]3CC[C@]12C	> 50 µg/mL
CC(C)[C@H](O)[C@H](O)C[C@@H](C)[C@H]1[C@@H](O)C[C@H]2[C@@H]3C[C@@H](O)[C@H]4C[C@@H](O[C@@H]5O[C@H](CO[C@@H]6O[C@H](CO)[C@@H](O)[C@H](O)[C@H]6O)[C@@H](O)[C@H](O)[C@H]5O)CC[C@]4(C)[C@H]3CC[C@]12C [CHAMAELIROSIDE A]	> 50 µg/mL
C[C@H](CC[C@H](O)[C@@H](C)[C@H]1[C@@H](O)C[C@H]2[C@@H]3CC=C4C[C@@H](O[C@@H]5O[C@H](CO)[C@@H](O)[C@H](O)[C@H]5O)CC[C@]4(C)[C@H]3[C@H](O)C[C@]12C)CO[C@@H]1O[C@H](CO)[C@@H](O)[C@H](O)[C@H]1O [HELOSIDE A]	> 50 µg/mL
CC(=O)O[C@H]1CC[C@@]2(C)C(=CC[C@H]3[C@@H]4C[C@H](OC(C)=O)[C@H]([C@H](C)C(=O)CC[C@@H](C)CO)[C@@]4(C)CC[C@@H]32)C1	2.8 µg/mL
C[C@@H](CO)CC[C@@H](O)[C@@H](C)[C@H]1[C@@H](O)C[C@H]2[C@@H]3CC=C4C[C@@H](O)CC[C@]4(C)[C@H]3CC[C@]12C	> 50 µg/mL
C[C@@H](CO)CC[C@H](O)[C@@H](C)[C@H]1[C@@H](O)C[C@H]2[C@@H]3CC=C4C[C@@H](O)CC[C@]4(C)[C@H]3[C@H](O)C[C@]12C [HELOGENIN]	> 50 µg/mL
CC(=O)O[C@@H]1[C@H](O)[C@@H](O)[C@H](O[C@@H](C(C)C)[C@H](O)C[C@@H](C)[C@H]2[C@@H](O)C[C@H]3[C@@H]4C[C@@H](O)[C@H]5C[C@@H](O[C@@H]6O[C@H](CO[C@@H]7O[C@H](CO)[C@@H](O)[C@H](O)[C@H]7O)[C@@H](O)[C@H](O)[C@H]6O)CC[C@]5(C)[C@H]4CC[C@]23C)O[C@@H]1C [CHAMAELIROSIDE C]	> 50 µg/mL
CC(C)[C@H](O)[C@H](O)C[C@@H](C)[C@H]1[C@@H](O)C[C@H]2[C@@H]3CC(=O)[C@H]4C[C@@H](O[C@@H]5O[C@H](CO[C@@H]6O[C@H](CO)[C@@H](O)[C@H](O)[C@H]6O)[C@@H](O)[C@H](O)[C@H]5O)CC[C@]4(C)[C@H]3CC[C@]12C	> 50 µg/mL
